Experiment: qHTS assay to identify small molecule antagonists of the estrogen related receptor signaling pathway with the pleiotropic PPARgamma coactivator (PGC) cell viability counter screen (AID 1224822;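 note: viability read after 17.5 h compound exposure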)
Conditions: ERR/PGC reporter cell line viability counter screen; series mostly up to 46.1 µM
Records with an inconclusive call do not appear. The source made the active and inactive calls. Calls come from the whole dose curve; as a rule, active = well fitted cell-killing curve with a large enough effect in the repeat runs; inconclusive = weak or mixed curves, or effect the other way; inactive = flat fitted curve, though single readings scatter.
Please reply with one of these outcomes: active, inactive

Q: For CC[N+](CC)(CC)CC , which call appears in the assay record?
Result: inactive

Q: For Oc1cccc2cccnc12 , which call appears in the assay record?
Result: active

Q: For O=P1(N(CCCl)CCCl)NCCCO1 (centres undefined) , which call appears in the assay record?
Result: inactive

Q: For Nc1ccc(Cl)cc1 , which call appears in the assay record?
Result: inactive

----------
Experiment: qHTS assay to test for compound auto fluorescence at 460 nm (blue) in HepG2 cells (AID 720687)
Details: autofluorescence 405/460 nm, 1 h; series mostly up to 91.3 µM
The source made the active and inactive calls. The call rests on the fitted dose curve; in most records, active means well fitted curve in the direction sought with a large enough effect in the repeat runs; inconclusive means weak or mixed curves; inactive means flat fitted curve, though single readings scatter.
MEASURED PROPERTY: outcome

CCC(=O)C(CC(C)N(C)C)(c1ccccc1)c1ccccc1 (configuration not stated)    inactive
CCn1cc[n+](C)c1C    inactive
CCCCCCCCCCCCn1cc[n+](C)c1    inactive
Nc1ccccc1    inactive
Oc1ccccc1-c1ccccc1    inactive

Please fill in: outcome reported for CCCCn1cc[n+](C)c1 = inactive

Please fill in: outcome reported for CC[n+]1ccccc1 = inactive

----------
Experiment: qHTS assay for small molecule disruptors of the mitochondrial membrane potential (AID 720635)
Conditions: HepG2 mitochondrial membrane potential, Mito-MPS dye ratio; series mostly up to 83.2 µM
Records with an inconclusive call do not appear. Calls of active or inactive are those of the source. Calls follow the shape of the dose curve; as a rule, active = well fitted inhibition curve with a large enough effect in the signal ratio in the repeat runs; inconclusive = weak or mixed curves, or effect the other way; inactive = flat fitted curve, though single readings scatter; the % refers to the signal ratio.
MEASURED PROPERTY: outcome

Cc1cc(Cl)ccc1N    inactive
CC(Cl)(Cl)C(=O)O    inactive
C[N+](C)(C)Cc1ccccc1    inactive
Nc1ccccc1    inactive
COP(=O)(OC)OC=C(Cl)Cl    inactive
O=c1nc(O)n(Cl)c(=O)n1Cl    inactive
C1CCC(NC2CCCCC2)CC1    inactive
CCCCn1cc[n+](C)c1C    inactive

Please fill in: outcome reported for CCn1cc[n+](C)c1C = inactive

Please fill in: outcome reported for CCC[N+]1(C)CCCCC1 = inactive

Please fill in: outcome reported for O=c1[nH]c(=O)n(Cl)c(=O)n1Cl = inactive

Please fill in: outcome reported for COc1ccc(N)cc1 = inactive

Please fill in: outcome reported for CCCC[n+]1ccccc1C = inactive

Please fill in: outcome reported for CC[N+]1(C)CCCC1 = inactive

Please fill in: outcome reported for CCC(=O)C(CC(C)N(C)C)(c1ccccc1)c1ccccc1 (stereo not given) = inactive

Please fill in: outcome reported for COc1ccccc1N = inactive

----------
Target: Peroxisome proliferator-activated receptor gamma (Homo sapiens)
Test: qHTS assay to identify small molecule antagonists of the peroxisome proliferator-activated receptor gamma (PPARg) signaling pathway (AID 743191); note: nearly all actives have a fitted effect of over 30% in size
Details: HEK293H PPARg-UAS-bla, beta-lactamase ratio, antagonist, 17 h; series mostly up to 62.6 µM
Records with an inconclusive call do not appear. Activity calls are given as the source filed them. Calls come from the whole dose curve.
Please reply with one of these outcomes: T (active), F (inactive)

Q: For C=CCOC(Cn1ccnc1)c1ccc(Cl)cc1Cl (stereo not drawn) , which call appears in the assay record?
Result: F

Q: For O=C(O)C(Cl)(Cl)Cl , which call appears in the assay record?
Result: F

Q: For COCC(=O)N(c1c(C)cccc1C)C(C)C(=O)OC (stereo not drawn) , which call appears in the assay record?
Result: F

Q: For CCC(=O)C(CC(C)N(C)C)(c1ccccc1)c1ccccc1 (stereo not drawn) , which call appears in the assay record?
Result: F

Q: For Nc1ccc(Cl)cc1 , which call appears in the assay record?
Result: T

Q: For OCCOc1ccccc1 , which call appears in the assay record?
Result: F

Q: For Cc1cc(Cl)ccc1N , which call appears in the assay record?
Result: F

Q: For CNC , which call appears in the assay record?
Result: F
